Hey, just so you know, these numbers are from PubChem BioAssay AID1159580.

# Method Summary: chemical genetic growth profiling, strain panel (AID 1159580);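 note: tested at 20 µM; growth read once vehicle control cultures reached saturation at 30 °C; 1 = growth at the plate median or of vehicle wells; lower values mean less growth of the strain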
# Condition Context: S. cerevisiae deletion strains, growth OD, locus YPL031C, strain PHO85, stronger effect = lower value
Screen size: about 5,500 compounds; about 2,000 (36%) were called active. Inconclusive results (about 18%) are left out. The list shows a part of the results.
Examples of molecules with documented normalized growth follow.
Readout Name: normalized growth

| Molecule | Observed Measurement |
| --- | --- |
| COc1ccc(Oc2ccc([N+](=O)[O-])cc2C(=O)O/N=C(/N)c2ccc(C(F)(F)F)cc2)cc1 | 0.988 |
| S=C(NCCc1csc2ccccc12)Nc1ccc(Cl)cc1 | 0.768 |
| Cc1cc(C)c2cc(C(=O)NCCNc3ccc(C(F)(F)F)cn3)[nH]c2c1 | 0.276 |
| COc1cc(C2CC(=S)Nc3ccccc3S2)cc(OC)c1OC (stereo unspecified) | 0.953 |
| CC(C)c1cccc(C(C)C)c1OC(=O)NC(=O)c1c(Cl)cccc1Cl | 0.954 |
| O=C(Nc1ccc(F)cc1F)c1cc(Cl)ccc1O | 0.928 |
| CC(C)OC(=O)Nc1cc(Cl)cc(Cl)c1 | 0.756 |
| NNC(=O)c1oc2nc(-c3ccccc3)cc(-c3ccccc3)c2c1N | 0.907 |
| O=C(Nc1cc(Cl)cc(Cl)c1)c1cc(Cl)ccc1O | 0.823 |
| CC(=O)c1ccc(Sc2ccccc2)c([N+](=O)[O-])c1 | 0.785 |
| O=C(Nc1ccccc1Sc1ccc(C(F)(F)F)cc1[N+](=O)[O-])C(Cl)Cl | 0.984 |
